This listing pairs compounds with measured pIC50.
assay: Antiproliferative activity against human HT-29 cells after 48 hrs by SRB assay; assay type: functional, cell-based; settings: HT-29, 48 h
Remember, pIC50 is on a log scale: it is -log10 of the molar concentration.

// solved cases for pIC50 follow
{"columns": ["compound", "pIC50"],
 "data": [
  ["C=C(C)C1CC[C@H]2[C@@H]3CC[C@H]([C@H](C)CCC(=O)N4CCN(C5CCCCC5)CC4)[C@@]3(C)CC[C@@H]2[C@@]1(C)CCC(=O)N1CCN(C2CCCCC2)CC1 (stereo not given in full)", 5.50],
  ["C=C(C)C1CC[C@H]2[C@@H]3CC[C@H]([C@H](C)CCC(=O)OC)[C@@]3(C)CC[C@@H]2[C@@]1(C)CCC(=O)N1CCN(C)CC1 (stereo not given in full)", 4.86]
]}

q: Returns the measured pIC50 for the input compound. Input: C=C(C)C1CC[C@H]2[C@@H]3CC[C@H]([C@H](C)CCC(=O)N4CCNCC4)[C@@]3(C)CC[C@@H]2[C@@]1(C)CCC(=O)N1CCNCC1 (stereo not given in full)
a: 5.34

----------
assay: Antiproliferative activity against human PC3M cells after 48 hrs by SRB assay; type: functional, cell-based; details: PC-3M
This listing pairs compounds with measured pIC50.
Remember, pIC50 is on a log scale: it is -log10 of the molar concentration.

{"columns": ["compound", "pIC50"],
 "data": [
  ["C=C(C)C1CC[C@H]2[C@@H]3CC[C@H]([C@H](C)CCC(=O)OC)[C@@]3(C)CC[C@@H]2[C@@]1(C)CCC(=O)N1CCN(C)CC1 (stereo partly specified)", 4.38],
  ["CC(C)C1CC[C@H]2[C@@H]3CC[C@H]([C@H](C)CCC(=O)N4CCN(C)CC4)[C@@]3(C)CC[C@@H]2[C@@]1(C)CCC(=O)N1CCN(C)CC1 (stereo partly specified)", 4.90],
  ["C=C(C)C1CC[C@H]2[C@@H]3CC[C@H]([C@H](C)CCC(=O)N4CCN(CC)CC4)[C@@]3(C)CC[C@@H]2[C@@]1(C)CCC(=O)N1CCN(CC)CC1 (stereo partly specified)", 5.07],
  ["C=C(C)C1CC[C@H]2[C@@H]3CC[C@H]([C@H](C)CCC(=O)NC4CC4)[C@@]3(C)CC[C@@H]2[C@@]1(C)CCC(=O)NC1CC1 (stereo partly specified)", 4.77]
]}

Please find the next compound below.
q: Returns the measured pIC50 for the input compound. Input: C=C(C)C1CC[C@H]2[C@@H]3CC[C@H]([C@H](C)CCC(=O)N4CCOCC4)[C@@]3(C)CC[C@@H]2[C@@]1(C)CCC(=O)N1CCOCC1 (stereo partly specified)
a: 4.65

----------
assay: Antiproliferative activity against human HT-29 cells after 48 hrs by SRB assay; assay type: functional, cell-based; conditions: HT-29, 48 h
This listing pairs molecules with measured IC50.
Hi! Could you send only the number? It should be in µM, unit omitted.

// solved cases for IC50 follow
{"columns": ["molecule", "readout.kind", "units", "reported.measurement"],
 "data": [
  ["C=C(C)C1CC[C@H]2[C@@H]3CC[C@H]([C@H](C)CCC(=O)N4CCN(C(C)C)CC4)[C@@]3(C)CC[C@@H]2[C@@]1(C)CCC(=O)N1CCN(C(C)C)CC1 (stereo not given in full)", "IC50", "µM", 9.91],
  ["C=C(C)C1CC[C@H]2[C@@H]3CC[C@H]([C@H](C)CCC(=O)N4CCCC4)[C@@]3(C)CC[C@@H]2[C@@]1(C)CCC(=O)N1CCCC1 (stereo not given in full)", "IC50", "µM", 23.7],
  ["C=C(C)C1CC[C@H]2[C@@H]3CC[C@H]([C@H](C)CCC(=O)N(CC)CC)[C@@]3(C)CC[C@@H]2[C@@]1(C)CCC(=O)N(CC)CC (stereo not given in full)", "IC50", "µM", 6.88]
]}

q: Returns the measured IC50 for the input molecule. Input: C=C(C)C1CC[C@H]2[C@@H]3CC[C@H]([C@H](C)CCC(=O)N4CCN(C)CC4)[C@@]3(C)CC[C@@H]2[C@@]1(C)CCC(=O)N1CCN(C)CC1 (stereo not given in full)
a: 1.93

----------
assay: Antiproliferative activity against human ES2 cells after 48 hrs by SRB assay; type: functional, cell-based; settings: ES-2, 48 h
pIC50: −log10 of the molar value.
Assign class by pIC50: not lower than 5 means rule met; lower than 5 means rule not met.

Study these solved cases before continuing.
{"columns": ["molecule", "class.assignment"],
 "data": [
  ["C=C(C)C1CC[C@H]2[C@@H]3CC[C@H]([C@H](C)CCC(=O)N(CC)CC)[C@@]3(C)CC[C@@H]2[C@@]1(C)CCC(=O)N(CC)CC (stereo partly specified)", "rule not met"],
  ["C[C@H](CCC(=O)O)[C@H]1CC[C@H]2[C@@H]3[C@H](O)C[C@@H]4C[C@H](O)CC[C@]4(C)[C@H]3CC[C@]12C [CHENODIOL]", "rule not met"],
  ["C=C(C)C1CC[C@H]2[C@@H]3CC[C@H]([C@H](C)CCC(=O)Nc4ccc(F)cc4)[C@@]3(C)CC[C@@H]2[C@@]1(C)CCC(=O)Nc1ccc(F)cc1 (stereo partly specified)", "rule not met"],
  ["C=C(C)C1CC[C@H]2[C@@H]3CC[C@H]([C@H](C)CCC(=O)N4CCN(C)CC4)[C@@]3(C)CC[C@@H]2[C@@]1(C)CCC(=O)N1CCN(C)CC1 (stereo partly specified)", "rule met"],
  ["C[C@H](CCC(=O)O)[C@H]1CC[C@H]2[C@@H]3CCC(C(C)(C)O)[C@](C)(CCC(=O)O)[C@H]3CC[C@]12C (stereo partly specified)", "rule not met"]
]}

Continue with the molecule presented below.
q: Quick check: does C=C(C)C1CC[C@H]2[C@@H]3CC[C@H]([C@H](C)CCC(=O)O)[C@@]3(C)CC[C@@H]2[C@@]1(C)CCC(=O)O (stereo partly specified) have pIC50 greater than or equal to 5?
a: rule not met

----------
This listing pairs compounds with measured pIC50.
assay: Antiproliferative activity against human HT-29 cells after 48 hrs by SRB assay; type: functional, cell-based; details: HT-29, 48 h
Remember, pIC50 is on a log scale: it is -log10 of the molar concentration.

// solved cases for pIC50 follow
{"columns": ["compound", "reported.measurement"],
 "data": [
  ["C=C(C)C1CC[C@H]2[C@@H]3CC[C@H]([C@H](C)CCC(=O)N4CCN(CC)CC4)[C@@]3(C)CC[C@@H]2[C@@]1(C)CCC(=O)N1CCN(CC)CC1 (stereo not given in full)", 5.21],
  ["C#CCNC(=O)CC[C@@H](C)[C@H]1CC[C@H]2[C@@H]3CCC(C(=C)C)[C@](C)(CCC(=O)NCC#C)[C@H]3CC[C@]12C (stereo not given in full)", 4.07]
]}

Please find the next compound below.
q: Returns the measured pIC50 for the input compound. Input: C=C(C)C1CC[C@H]2[C@@H]3CC[C@H]([C@H](C)CCC(=O)NCc4ccccc4)[C@@]3(C)CC[C@@H]2[C@@]1(C)CCC(=O)NCc1ccccc1 (stereo not given in full)
a: 4.89

----------
experiment: Antiproliferative activity against human PC3M cells after 48 hrs by SRB assay; type: functional, cell-based; conditions: PC-3M
pIC50: −log10 of the molar value.
readout.kind: pIC50

q: Returns the measured pIC50 for the input compound. Input: C=C(C)C1CC[C@H]2[C@@H]3CC[C@H]([C@H](C)CCC(=O)N4CCNCC4)[C@@]3(C)CC[C@@H]2[C@@]1(C)CCC(=O)N1CCNCC1 (stereo partly drawn)
a: 5.97

q: Returns the measured pIC50 for the input compound. Input: C=C(C)C1CC[C@H]2[C@@H]3CC[C@H]([C@H](C)CCCN4CCN(C)CC4)[C@@]3(C)CC[C@@H]2[C@@]1(C)CCCN1CCN(C)CC1 (stereo partly drawn)
a: < 4.10

q: Returns the measured pIC50 for the input compound. Input: C=C(C)C1CC[C@H]2[C@@H]3CC[C@H]([C@H](C)CCC(=O)N4CCN(c5ccccc5)CC4)[C@@]3(C)CC[C@@H]2[C@@]1(C)CCC(=O)N1CCN(c2ccccc2)CC1 (stereo partly drawn)
a: < 4.10

----------
experiment: Antiproliferative activity against human PC3M cells after 48 hrs by SRB assay; assay type: functional, cell-based; details: PC-3M
readout.kind: IC50 (µM)
Hi! Could you send only the number? It should be in µM, unit omitted.

// solved cases for IC50 follow
{"columns": ["compound", "IC50, µM"],
 "data": [
  ["C=C(C)C1CC[C@H]2[C@@H]3CC[C@H]([C@H](C)CCC(=O)N4CCN(C5CCCCC5)CC4)[C@@]3(C)CC[C@@H]2[C@@]1(C)CCC(=O)N1CCN(C2CCCCC2)CC1 (stereo partly specified)", 12],
  ["C=C(C)C1CC[C@H]2[C@@H]3CC[C@H]([C@H](C)CCC(=O)N4CCN(C)CC4)[C@@]3(C)CC[C@@H]2[C@@]1(C)CCC(=O)N1CCN(C)CC1 (stereo partly specified)", 5.08]
]}

Please find the next compound below.
q: Returns the measured IC50 for the input compound. Input: C=C(C)C1CC[C@H]2[C@@H]3CC[C@H]([C@H](C)CCC(=O)NC(C)C)[C@@]3(C)CC[C@@H]2[C@@]1(C)CCC(=O)NC(C)C (stereo partly specified)
a: 7.41
